All values here come from patent US10556898B2.

// IC50 lookup, one value per entry
# tgt: GST-tagged human ROCK2 catalytic domain 1-553 (Homo sapiens, UniProt O75116)
# Construct: GST-tagged human ROCK2 catalytic domain 1-553 from Carna Biosciences (Cat #01-110); purchased Carna Biosciences 01-110; host or cells: baculovirus expression system
# Sequence (O75116 1-553): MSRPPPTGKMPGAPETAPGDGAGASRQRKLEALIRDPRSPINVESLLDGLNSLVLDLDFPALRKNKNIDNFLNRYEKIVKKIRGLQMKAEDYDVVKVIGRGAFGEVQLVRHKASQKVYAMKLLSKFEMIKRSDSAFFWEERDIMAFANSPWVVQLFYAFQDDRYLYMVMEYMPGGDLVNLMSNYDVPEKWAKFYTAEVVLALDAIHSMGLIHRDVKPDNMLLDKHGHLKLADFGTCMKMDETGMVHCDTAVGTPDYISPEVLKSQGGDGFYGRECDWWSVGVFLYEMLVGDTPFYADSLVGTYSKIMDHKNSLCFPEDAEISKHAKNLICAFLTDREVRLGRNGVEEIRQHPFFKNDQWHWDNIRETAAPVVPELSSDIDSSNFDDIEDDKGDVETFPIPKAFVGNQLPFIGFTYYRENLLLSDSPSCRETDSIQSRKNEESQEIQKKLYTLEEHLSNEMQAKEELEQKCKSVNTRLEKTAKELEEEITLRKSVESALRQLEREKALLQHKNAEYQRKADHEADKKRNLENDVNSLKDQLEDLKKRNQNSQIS
# assayProtocol: Isolated Enzyme Assay, ROCK2 (LANCE Ultra ULight-CREBtide FRET)
# Type: biochemical
# assayContext: isolated enzyme assay; 30 μM highest concentration tested; read-out: Results from Isolated Enzyme Assay IC50 (μM) ROCK2

Below, each entry is followed by its recorded IC50 result.
| structure | IC50 |
| --- | --- |
| Cc1nc(S(=O)(=O)Nc2cccc(-c3nsc(Nc4ccc5[nH]ncc5c4Cl)n3)c2)cn1C | 1 to 15 µM |
| O=C(NC1CCOCC1)c1cc(-c2nsc(Nc3ccc4[nH]ncc4c3Cl)n2)ccc1F | < 1 µM |
| COc1ncc(C(=O)Nc2cc(-c3nsc(Nc4ccc5[nH]ncc5c4Cl)n3)ccn2)cn1 | < 1 µM |
| CC(=O)Nc1cc(-c2nsc(Nc3ccc4[nH]ncc4c3Cl)n2)cn(C)c1=O | < 1 µM |
| O=C(Nc1cccc(-c2nsc(Nc3ccc4[nH]ncc4c3Cl)n2)c1)c1ccccn1 | < 1 µM |

Measured IC50, COc1cccc(C(=O)Nc2cc(C)nc(-c3nsc(Nc4ccc5[nH]ncc5c4Cl)n3)c2)c1 : > 30 µM

IC50 measured on Cn1cc(C(=O)Nc2cccc(-c3nsc(Nc4ccc5[nH]ncc5c4Cl)n3)c2)cn1 = < 1 µM

Consider Oc1ccn(-c2cccc(-c3nsc(Nc4ccc5[nH]ncc5c4Cl)n3)c2)n1 . Its measured IC50 is < 1 µM

For reference, reported IC50 for CP(C)(=O)c1cccc(-c2nsc(Nc3ccc4[nH]ncc4c3Cl)n2)c1 stands at > 30 µM

The compound COc1cccc(C(=O)Nc2cc(-c3nsc(Nc4ccc5[nH]ncc5c4Cl)n3)ccn2)c1 showed IC50 equal to > 30 µM

get_value(item= Cn1cnc2c(-c3nsc(Nc4ccc5[nH]ncc5c4Cl)n3)cccc21 , readout=IC50) returns 1 to 15 µM

Record summary for CCCOC(=O)Nc1cc(-c2nsc(Nc3ccc4[nH]ncc4c3Cl)n2)cn(C)c1=O : reported IC50 = < 1 µM

Notebook: CS(=O)(=O)c1cccc(-c2nsc(Nc3ccc4[nH]ncc4c3Cl)n2)c1 , IC50 read as > 30 µM

// field: IC50; key: CN1CCN(C(=O)c2cccc(-c3nsc(Nc4ccc5[nH]ncc5c4Cl)n3)c2)CC1 ; value = 1 to 15 µM

response.value for O=c1c2ccccc2ncn1-c1cccc(-c2nsc(Nc3ccc4[nH]ncc4c3Cl)n2)c1 (field: IC50) = > 30 µM

The compound identified as NC[C@@H]1CCCN1c1nsc(Nc2ccc3[nH]ncc3c2Cl)n1 registered its IC50 at > 30 µM

Entry O=c1ccccn1-c1cccc(-c2nsc(Nc3ccc4[nH]ncc4c3Cl)n2)c1 ; IC50 = 1 to 15 µM

Short answer for Cn1ccc(C(=O)Nc2cc(-c3nsc(Nc4ccc5[nH]ncc5c4Cl)n3)cn(C)c2=O)n1 : IC50 was < 1 µM

// O=C(c1cccc(-c2nsc(Nc3ccc4[nH]ncc4c3Cl)n2)c1)N1CCc2ccccc2C1 : IC50 value = < 1 µM

Quick note, IC50 for Cc1ncc(-c2nsc(Nc3ccc4[nH]ncc4c3Cl)n2)cc1NC(=O)c1ccnn1C landed at < 1 µM

// sample Cc1cc(NC(=O)c2cncs2)cc(-c2nsc(Nc3ccc4[nH]ncc4c3Cl)n2)n1 , its IC50 was < 1 µM

Reported IC50 ( O=C(NC1CCCC1)c1cc(-c2nsc(Nc3ccc4[nH]ncc4c3Cl)n2)ccc1F ) = < 1 µM

The compound listed as COc1ncc(-c2nsc(Nc3ccc4[nH]ncc4c3Cl)n2)cc1NC(=O)c1ccnn1C has a reported IC50 of > 30 µM
